Assay: Displacement of [3H]spiperone from D2 like receptor in pig striatal tissue by topcount scintillation counting
Assay type: tissue-based, Sus scrofa, Striatum
Attribute Measured: pKi
Value format note: pKi is -log10 of concentration (mol/L); just state the number.

Guide cases for pKi, answers given:
{"Compound": "Oc1ccc2c(c1O)CC[C@@H]1CCNC[C@@H]21 (relative stereo)", "pKi": 6.17}
{"Compound": "Oc1ccc2c(c1O)CC[C@@H]1CCNC[C@H]21 (relative stereo)", "pKi": 5.55}

Please find the next compound below.
Request: For the compound shown here, "Oc1ccc2c(c1O)C[C@@H](c1ccccc1)[C@@H]1CCNC[C@@H]21" , give the reported pKi.
Response: 6.36

* * *

Target: D(4) dopamine receptor (Homo sapiens)
Sequence (P21917 whole entry): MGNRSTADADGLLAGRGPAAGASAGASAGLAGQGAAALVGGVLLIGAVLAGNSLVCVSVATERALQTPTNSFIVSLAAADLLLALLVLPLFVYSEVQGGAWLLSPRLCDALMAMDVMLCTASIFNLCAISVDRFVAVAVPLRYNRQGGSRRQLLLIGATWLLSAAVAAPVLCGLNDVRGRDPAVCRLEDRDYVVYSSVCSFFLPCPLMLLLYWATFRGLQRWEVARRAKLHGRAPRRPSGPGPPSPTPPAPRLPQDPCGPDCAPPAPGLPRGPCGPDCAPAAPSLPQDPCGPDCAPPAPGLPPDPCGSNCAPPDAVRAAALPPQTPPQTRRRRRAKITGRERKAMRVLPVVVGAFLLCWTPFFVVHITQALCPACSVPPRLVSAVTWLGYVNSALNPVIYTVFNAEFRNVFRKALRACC
Assay: Binding affinity to dopamine D4 receptor
Attribute Measured: pKi
Value format note: pKi is -log10 of concentration (mol/L); just state the number.

Request: Recall the recorded pKi for "Oc1ccc2c(c1O)C[C@@H](c1ccccc1)[C@@H]1CCNC[C@@H]21" with D(4) dopamine receptor (Homo sapiens) and state it.
Response: 5.58

* * *

Test: Displacement of [3H]SCH23390 from D1 like receptor in pig striatal tissue by topcount scintillation counting
Type: tissue-based, Sus scrofa, Striatum
Attribute Measured: pKi
Value format note: pKi is -log10 of concentration (mol/L); just state the number.

{"Compound": "Oc1ccc2c(c1O)C[C@@H](c1ccccc1)[C@@H]1CCNC[C@@H]21", "pKi": 8.22}
{"Compound": "CN1CCc2cc(Cl)c(O)cc2[C@@H](c2ccccc2)C1", "pKi": 9.10}
{"Compound": "Oc1ccc2c(c1O)CC[C@@H]1CCNC[C@H]21 (relative stereo)", "pKi": 5.17}

Please find the next compound below.
Request: For the compound shown here, Oc1ccc2c(c1O)CC[C@@H]1CCNC[C@@H]21 (relative stereo) , give the reported pKi.
Response: 6.07

* * *

Molecular target: D(1A) dopamine receptor (Homo sapiens, UniProt P21728)
Sequence (P21728 whole entry): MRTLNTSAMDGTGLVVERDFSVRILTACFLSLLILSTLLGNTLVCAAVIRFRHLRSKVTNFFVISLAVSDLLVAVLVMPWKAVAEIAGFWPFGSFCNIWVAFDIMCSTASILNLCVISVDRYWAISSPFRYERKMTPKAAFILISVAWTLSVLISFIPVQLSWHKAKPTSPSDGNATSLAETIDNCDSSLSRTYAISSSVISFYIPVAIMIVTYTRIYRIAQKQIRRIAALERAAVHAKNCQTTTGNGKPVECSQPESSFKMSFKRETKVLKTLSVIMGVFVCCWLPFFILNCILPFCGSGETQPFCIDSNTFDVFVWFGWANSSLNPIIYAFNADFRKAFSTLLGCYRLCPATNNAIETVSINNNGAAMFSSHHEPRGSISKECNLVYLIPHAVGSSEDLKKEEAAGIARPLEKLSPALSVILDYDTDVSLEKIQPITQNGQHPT
Experiment: Binding affinity to dopamine D1 receptor
Attribute Measured: pKi
Value format note: pKi is -log10 of concentration (mol/L); just state the number.

Request: For the molecule shown here, "Oc1ccc2c(c1O)C[C@@H](c1ccccc1)[C@@H]1CCNC[C@@H]21" , give the reported pKi.
Response: 7.74

* * *

Biological target: UniProt:P08913
Sequence (P08913 whole entry): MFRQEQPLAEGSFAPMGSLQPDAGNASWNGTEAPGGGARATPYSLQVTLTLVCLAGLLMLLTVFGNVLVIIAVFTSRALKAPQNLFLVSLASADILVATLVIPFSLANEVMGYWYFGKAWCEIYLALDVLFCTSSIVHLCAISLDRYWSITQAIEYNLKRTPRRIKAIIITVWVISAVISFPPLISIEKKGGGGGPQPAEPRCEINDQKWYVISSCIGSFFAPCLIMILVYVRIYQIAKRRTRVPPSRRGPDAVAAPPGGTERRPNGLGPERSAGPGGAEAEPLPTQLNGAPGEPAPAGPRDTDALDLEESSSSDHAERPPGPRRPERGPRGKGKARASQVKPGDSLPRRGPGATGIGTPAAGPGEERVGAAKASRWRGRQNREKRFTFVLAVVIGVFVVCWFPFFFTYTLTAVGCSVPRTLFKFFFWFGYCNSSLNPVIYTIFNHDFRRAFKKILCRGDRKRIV
Assay: Binding affinity to adrenergic alpha2A receptor
Attribute Measured: Ki (nM)
Write the value in nM as a bare number.

Request: For the compound shown here, "Oc1ccc2c(c1O)C[C@@H](c1ccccc1)[C@@H]1CCNC[C@@H]21" , give the reported Ki.
Response: 3.5

* * *

Target: Alpha-2C adrenergic receptor (Homo sapiens, UniProt P18825)
Sequence (P18825 whole entry): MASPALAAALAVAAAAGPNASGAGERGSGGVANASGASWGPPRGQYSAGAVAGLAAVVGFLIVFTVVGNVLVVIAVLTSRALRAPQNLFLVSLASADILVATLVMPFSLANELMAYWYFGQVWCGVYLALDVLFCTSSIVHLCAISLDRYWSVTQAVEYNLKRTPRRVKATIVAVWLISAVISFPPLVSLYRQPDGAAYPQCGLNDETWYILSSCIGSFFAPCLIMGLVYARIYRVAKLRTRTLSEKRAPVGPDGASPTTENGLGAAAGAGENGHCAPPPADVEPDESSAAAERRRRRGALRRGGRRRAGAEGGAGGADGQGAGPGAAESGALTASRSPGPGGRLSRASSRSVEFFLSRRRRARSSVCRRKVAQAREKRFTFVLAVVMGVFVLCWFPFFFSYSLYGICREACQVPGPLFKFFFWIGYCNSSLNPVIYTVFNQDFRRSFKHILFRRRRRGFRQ
Attribute Measured: Ki (nM)
Write the value in nM as a bare number.

Request: Recall the recorded Ki for "Oc1ccc2c(c1O)C[C@@H](c1ccccc1)[C@@H]1CCNC[C@@H]21" with Alpha-2C adrenergic receptor (Homo sapiens, UniProt P18825) and state it.
Response: 1.1

* * *

Target: Alpha-2B adrenergic receptor (Homo sapiens, UniProt P18089)
Sequence (P18089 whole entry): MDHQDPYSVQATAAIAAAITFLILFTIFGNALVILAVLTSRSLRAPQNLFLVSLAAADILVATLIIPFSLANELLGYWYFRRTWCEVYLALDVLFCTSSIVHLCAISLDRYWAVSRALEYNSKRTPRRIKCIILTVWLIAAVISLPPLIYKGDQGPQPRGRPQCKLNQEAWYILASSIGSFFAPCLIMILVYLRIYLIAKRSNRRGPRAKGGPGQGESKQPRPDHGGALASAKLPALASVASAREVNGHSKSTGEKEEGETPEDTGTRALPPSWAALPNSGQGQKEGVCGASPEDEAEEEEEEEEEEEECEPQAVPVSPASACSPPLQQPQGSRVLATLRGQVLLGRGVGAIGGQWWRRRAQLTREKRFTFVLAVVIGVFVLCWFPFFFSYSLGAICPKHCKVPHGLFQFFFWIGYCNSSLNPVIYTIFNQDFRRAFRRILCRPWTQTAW
Attribute Measured: pKi
Value format note: pKi is -log10 of concentration (mol/L); just state the number.

Request: For the molecule shown here, "Oc1ccc2c(c1O)C[C@@H](c1ccccc1)[C@@H]1CCNC[C@@H]21" , give the reported pKi.
Response: 8.19

* * *

Target: Kappa-type opioid receptor (Homo sapiens, UniProt P41145)
Sequence (P41145 whole entry): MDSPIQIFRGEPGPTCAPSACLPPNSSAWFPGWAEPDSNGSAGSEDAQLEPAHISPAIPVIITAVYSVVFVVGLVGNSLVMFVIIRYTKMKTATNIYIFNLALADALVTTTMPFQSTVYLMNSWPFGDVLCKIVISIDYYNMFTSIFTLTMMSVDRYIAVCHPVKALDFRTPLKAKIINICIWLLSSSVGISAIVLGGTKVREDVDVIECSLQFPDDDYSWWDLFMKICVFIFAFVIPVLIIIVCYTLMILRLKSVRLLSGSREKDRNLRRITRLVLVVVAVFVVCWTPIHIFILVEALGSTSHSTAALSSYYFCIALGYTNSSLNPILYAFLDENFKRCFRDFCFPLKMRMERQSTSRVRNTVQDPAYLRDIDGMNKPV
Attribute Measured: pKi
Value format note: pKi is -log10 of concentration (mol/L); just state the number.

Request: Recall the recorded pKi for "Oc1ccc2c(c1O)C[C@@H](c1ccccc1)[C@@H]1CCNC[C@@H]21" with Kappa-type opioid receptor (Homo sapiens, UniProt P41145) and state it.
Response: 6.09

* * *

Molecular target: D(1A) dopamine receptor (Homo sapiens, UniProt P21728)
Assay: Agonist activity at human D1 receptor assessed as cAMP accumulation
Attribute Measured: pEC50
Value format note: pEC50 is -log10 of concentration (mol/L); just state the number.

Request: Recall the recorded pEC50 for "Oc1ccc2c(c1O)C[C@@H](c1ccccc1)[C@@H]1CCNC[C@@H]21" with D(1A) dopamine receptor (Homo sapiens, UniProt P21728) and state it.
Response: 9.19

* * *

Target: Alpha-1A adrenergic receptor (Homo sapiens, UniProt P35348)
Sequence (P35348 whole entry): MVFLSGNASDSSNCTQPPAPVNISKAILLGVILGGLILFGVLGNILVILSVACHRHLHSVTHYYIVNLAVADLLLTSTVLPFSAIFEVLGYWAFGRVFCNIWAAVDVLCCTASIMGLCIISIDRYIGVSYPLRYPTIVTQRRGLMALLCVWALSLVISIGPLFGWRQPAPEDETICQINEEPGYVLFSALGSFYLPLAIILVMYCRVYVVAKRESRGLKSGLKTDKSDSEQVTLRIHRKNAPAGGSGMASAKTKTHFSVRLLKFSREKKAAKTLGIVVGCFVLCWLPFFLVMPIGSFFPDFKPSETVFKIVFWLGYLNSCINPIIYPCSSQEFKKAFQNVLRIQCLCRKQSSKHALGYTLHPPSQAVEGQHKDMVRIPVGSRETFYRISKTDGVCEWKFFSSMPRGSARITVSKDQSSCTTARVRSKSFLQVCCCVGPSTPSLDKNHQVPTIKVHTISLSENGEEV
Attribute Measured: Ki (nM)
Write the value in nM as a bare number.

Request: For the molecule shown here, "Oc1ccc2c(c1O)C[C@@H](c1ccccc1)[C@@H]1CCNC[C@@H]21" , give the reported Ki.
Response: 340
